target: Human GLP-1 receptor (human, UniProt P43220 24-463); assay: cell-based or functional assay
Sequence (P43220 24-463): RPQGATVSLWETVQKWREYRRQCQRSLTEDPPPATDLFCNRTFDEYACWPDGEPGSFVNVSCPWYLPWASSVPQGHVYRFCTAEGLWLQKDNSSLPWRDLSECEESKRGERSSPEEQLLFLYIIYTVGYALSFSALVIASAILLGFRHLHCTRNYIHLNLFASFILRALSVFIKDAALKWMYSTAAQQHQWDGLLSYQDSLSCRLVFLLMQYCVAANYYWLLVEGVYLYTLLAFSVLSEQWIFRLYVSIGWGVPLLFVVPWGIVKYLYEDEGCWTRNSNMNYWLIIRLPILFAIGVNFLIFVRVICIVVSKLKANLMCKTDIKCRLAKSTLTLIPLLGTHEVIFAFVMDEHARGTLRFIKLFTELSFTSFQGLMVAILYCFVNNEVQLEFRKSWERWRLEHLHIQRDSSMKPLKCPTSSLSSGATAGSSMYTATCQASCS
Where no end group is shown, it is not given here. [ ]: non-standard residue; d: D form. αMePhe(2-F) = C[C@](N)(Cc1ccccc1F)C(=O)O; Ac3c = NC1(C(=O)O)CC1
assayEndpoint: cAMP release, % activity with respect to control; test compound 1 nM (%)

INSERT INTO results (binder, measvalue) VALUES
  ('HXQGTXTSDXX (ACP at 2; α-Me-2F-Phe at 6; Bip(OMe) at 10; Bip(2Me) at 11) [Seq. ID. No. 33: H-(ACP)-QGT-(α-Me-2F-Phe)-TSD-Bip(OMe)-Bip(2Me)]', 99),
  ('HXQGTXTSDXX (Aib at 2; α-Me-2F-Phe at 6; Bip(OMe) at 10; Bip(2Me) at 11) [Seq. ID. No. 29: H-Aib-QGT-(α-Me-2F-Phe)-TSD-Bip(OMe)-Bip(2Me)]', 99),
  ('HAQGT[αMePhe(2-F)]TSD[Bip(OMe)][Bip(2Me)] [Seq. ID. No. 25: HAQGT-(α-Me-2F-Phe)-TSD-Bip(OMe)-Bip(2Me)]', 38);

(I) HSQGTFTSD[Bip(OMe)][Bip(Pyr)] (not fully specified (C-terminus); printed as HSQGTFTSD-Bip(OMe)-Bip(Pyr)) [Seq. ID. No. 6: HSQGTFTSD-Bip(OMe)-Bip(Pyr)]
(II) H[Ac3c]QGTFTSD[Bip(OMe)][Bip(2Me)] [Seq. ID. No. 17: H-(ACP)-QGTFTSD-Bip(OMe)-Bip(2Me)]
Exercise: Identify the entry with the smaller cAMP release, % activity with respect to control; test compound 1 nM: I or II . Mark your answer with the label of the selected entry.
Solution: I
(I: 39%, II: 78%)

The origin of these recorded values is patent US20130225488A1.
